Test system: NF-κB activation
experiment: Inhibitory activity against NF-κB activation, luciferase reporter assay under TNF-α stimulation
Assay type: cell-based, human
study conditions: Drug Concentration 10 μg/mL; HepG2 cells, TNF-α 40 ng/ml, 4 hours
parameter measured: Inhibitory Ratio of NF-κ B Activation(%)
Output spec: scalar in %, unitless text.

Here are 3 compounds together with their reported answers.
{"compound": "CS(=O)(=O)Oc1ccc(Cl)cc1C(=O)Nc1cc(C(F)(F)F)cc(C(F)(F)F)c1 [Compound 44]", "target or system": "NF-κB activation", "unit name": "%", "Inhibitory Ratio of NF-κ B Activation(%)": 98.6}
{"compound": "CC(=O)OCC(=O)Oc1ccc(Cl)cc1C(=O)Nc1cc(C(F)(F)F)cc(C(F)(F)F)c1 [Compound 11]", "target or system": "NF-κB activation", "unit name": "%", "Inhibitory Ratio of NF-κ B Activation(%)": 99.2}
{"compound": "CC(C)C[C@H](NC(=O)[C@@H](N)CCCCN)C(=O)Oc1ccc(Cl)cc1C(=O)Nc1cc(C(F)(F)F)cc(C(F)(F)F)c1.Cl.Cl [Compound 40]", "target or system": "NF-κB activation", "unit name": "%", "Inhibitory Ratio of NF-κ B Activation(%)": 97.5}

Item CC(=O)OC[C@H]1O[C@@H](Oc2ccc(Cl)cc2C(=O)Nc2cc(C(F)(F)F)cc(C(F)(F)F)c2)[C@H](OC(C)=O)[C@@H](OC(C)=O)[C@@H]1OC(C)=O [Compound 112] has what recorded Inhibitory Ratio of NF-κ B Activation(%)?
49.5

* * *

Tested on: NF-κB activation
experiment: Inhibitory activity against NF-κB activation, luciferase reporter assay under TNF-α stimulation
Type: cell-based, human
study conditions: Drug Concentration 10 μg/mL; HepG2 cells, TNF-α 40 ng/ml, 4 hours
Collected Inhibitory Ratio of NF-κ B Activation(%) values appear next to each entry.
Give the quantity in %, number only.

{"structure smiles": "CC(C)(C)OC(=O)NCCCC[C@H](NC(=O)CNC(=O)Oc1ccc(Cl)cc1C(=O)Nc1cc(C(F)(F)F)cc(C(F)(F)F)c1)C(=O)OC(C)(C)C", "target or system": "NF-κB activation", "unit name": "%", "Inhibitory Ratio of NF-κ B Activation(%)": 97.3}

Give the measured Inhibitory Ratio of NF-κ B Activation(%) of CCOc1ccc(Cl)cc1C(=O)Nc1cc(C(F)(F)F)cc(C(F)(F)F)c1 .
71.4

For the compound shown here, COCC(=O)Oc1ccc(Cl)cc1C(=O)Nc1cc(C(F)(F)F)cc(C(F)(F)F)c1 , give the reported Inhibitory Ratio of NF-κ B Activation(%).
97.4

* * *

Tested on: NF-κB activation
experiment: Inhibitory activity against NF-κB activation, luciferase reporter assay under TNF-α stimulation
Format: cell-based, human
study conditions: Drug Concentration 10 μg/mL; HepG2 cells, TNF-α 40 ng/ml, 4 hours
parameter measured: Inhibitory Ratio of NF-κ B Activation(%)
Write the number in % without appending the unit.

{"compound": "COC(=O)[C@H](C)NC(=O)Oc1ccc(Cl)cc1C(=O)Nc1cc(C(F)(F)F)cc(C(F)(F)F)c1", "target or system": "NF-κB activation", "unit name": "%", "Inhibitory Ratio of NF-κ B Activation(%)": 98.8}
{"compound": "CN(C)S(=O)(=O)Oc1ccc(Cl)cc1C(=O)Nc1cc(C(F)(F)F)cc(C(F)(F)F)c1", "target or system": "NF-κB activation", "unit name": "%", "Inhibitory Ratio of NF-κ B Activation(%)": 90.4}
{"compound": "COC(=O)[C@H](COC(C)(C)C)NC(=O)Oc1ccc(Cl)cc1C(=O)Nc1cc(C(F)(F)F)cc(C(F)(F)F)c1", "target or system": "NF-κB activation", "unit name": "%", "Inhibitory Ratio of NF-κ B Activation(%)": 98.9}

Please report the recorded Inhibitory Ratio of NF-κ B Activation(%) for O=C(COc1ccc(Cl)cc1)Oc1ccc(Cl)cc1C(=O)Nc1cc(C(F)(F)F)cc(C(F)(F)F)c1 .
98.7

* * *

Tested on: NF-κB activation
experiment: Inhibitory activity against NF-κB activation, luciferase reporter assay under TNF-α stimulation
Format: cell-based, human
study conditions: Drug Concentration 10 μg/mL; HepG2 cells, TNF-α 40 ng/ml, 4 hours
Inhibitory Ratio of NF-κ B Activation(%) values by entry
Your answer should be a plain number; it is taken to be in %.

The examples below pair each entry with its known result.
{"molecule": "O=C(Oc1ccc(Cl)cc1C(=O)Nc1cc(C(F)(F)F)cc(C(F)(F)F)c1)c1cccnc1 [Compound 6]", "unit name": "%", "Inhibitory Ratio of NF-κ B Activation(%)": 98.1}
{"molecule": "O=C(Oc1ccc(Cl)cc1C(=O)Nc1cc(C(F)(F)F)cc(C(F)(F)F)c1)c1ccncc1 [Compound 7]", "unit name": "%", "Inhibitory Ratio of NF-κ B Activation(%)": 98.8}
{"molecule": "O=C(Oc1ccc(Cl)cc1C(=O)Nc1cc(C(F)(F)F)cc(C(F)(F)F)c1)c1ccccc1 [Compound 4]", "unit name": "%", "Inhibitory Ratio of NF-κ B Activation(%)": 97.5}
{"molecule": "CCCCC(=O)Oc1ccc(Cl)cc1C(=O)Nc1cc(C(F)(F)F)cc(C(F)(F)F)c1 [Compound 2]", "unit name": "%", "Inhibitory Ratio of NF-κ B Activation(%)": 98.6}
{"molecule": "CN1CCN(C(=O)Oc2ccc(Cl)cc2C(=O)Nc2cc(C(F)(F)F)cc(C(F)(F)F)c2)CC1 [Compound 72]", "unit name": "%", "Inhibitory Ratio of NF-κ B Activation(%)": 35.2}
{"molecule": "CC(C)C[C@H](NC(=O)[C@@H](N)Cc1ccccc1)C(=O)Oc1ccc(Cl)cc1C(=O)Nc1cc(C(F)(F)F)cc(C(F)(F)F)c1.Cl [Compound 36]", "unit name": "%", "Inhibitory Ratio of NF-κ B Activation(%)": 98.7}
{"molecule": "CSc1ccc(NC(=O)Oc2cc3ccccc3cc2C(=O)Nc2ccccc2)cc1 [Compound 66]", "unit name": "%", "Inhibitory Ratio of NF-κ B Activation(%)": 41.4}
{"molecule": "COc1ccccc1NC(=O)c1cc2cc(Br)ccc2cc1OP(=O)(O)O [Compound 53]", "unit name": "%", "Inhibitory Ratio of NF-κ B Activation(%)": 92.0}

Recorded Inhibitory Ratio of NF-κ B Activation(%) of CC(C)Oc1ccc(Cl)cc1C(=O)Nc1cc(C(F)(F)F)cc(C(F)(F)F)c1 [Compound 96] , please.
96.1

Can you share its Inhibitory Ratio of NF-κ B Activation(%)? I mean this molecule: COc1ccc(C(C)(C)C)cc1C(=O)Nc1cc(C(F)(F)F)cc(C(F)(F)F)c1 [Compound 94]
51.7

So what's the measured Inhibitory Ratio of NF-κ B Activation(%) for this one? CC(C)C[C@H](NC(=O)[C@H](CC(=O)OC(C)(C)C)NC(=O)OC(C)(C)C)C(=O)Oc1ccc(Cl)cc1C(=O)Nc1cc(C(F)(F)F)cc(C(F)(F)F)c1 [Compound 37]
98.1

Fill in the blank: the reported Inhibitory Ratio of NF-κ B Activation(%) of O=C(NCc1ccccc1)Oc1ccc(Cl)cc1C(=O)Nc1cc(C(F)(F)F)cc(C(F)(F)F)c1 [Compound 55] is ____.
99.1

What measured Inhibitory Ratio of NF-κ B Activation(%) goes with O=C(CCC(=O)N1CCCCC1)Oc1ccc(Cl)cc1C(=O)Nc1cc(C(F)(F)F)cc(C(F)(F)F)c1 [Compound 19] ?
98.8

* * *

System: NF-κB activation
experiment: Inhibitory activity against NF-κB activation, luciferase reporter assay under TNF-α stimulation
Assay type: cell-based, human
study conditions: Drug Concentration 1 μg/mL; HepG2 cells, TNF-α 40 ng/ml, 4 hours
Binary classification by Inhibitory Ratio of NF-κ B Activation(%), with 50% as an inclusive lower bound for True; all other cases are False.

{"compound": "O=C(Nc1cc(C(F)(F)F)cc(C(F)(F)F)c1)c1cc(Cl)ccc1OC(=O)N1CCCC1 [Compound 70]", "group label": "False"}
{"compound": "CCN(CC)C(=O)Oc1ccc(Cl)cc1C(=O)Nc1cc(C(F)(F)F)cc(C(F)(F)F)c1 [Compound 68]", "group label": "True"}
{"compound": "CN(C)S(=O)(=O)Oc1ccc(Cl)cc1C(=O)Nc1cc(C(F)(F)F)cc(C(F)(F)F)c1 [Compound 48]", "group label": "False"}
{"compound": "CC(C)C[C@H](NC(=O)[C@H](CC(=O)OC(C)(C)C)NC(=O)OC(C)(C)C)C(=O)Oc1ccc(Cl)cc1C(=O)Nc1cc(C(F)(F)F)cc(C(F)(F)F)c1 [Compound 37]", "group label": "True"}
{"compound": "CCCCCCCCCC(=O)Oc1ccc(Cl)cc1C(=O)Nc1cc(C(F)(F)F)cc(C(F)(F)F)c1 [Compound 3]", "group label": "True"}

Can O=C(Nc1ccc(-c2ccccc2)cc1)c1cc(C(F)(F)F)ccc1OC(=O)N1CCOCC1 [Compound 119] be said to have Inhibitory Ratio of NF-κ B Activation(%) at or above 50%?
True

In plain terms: is recorded Inhibitory Ratio of NF-κ B Activation(%) at least 50% for COc1cc(NC(=O)c2cc(Br)ccc2OP(=O)([O-])O)cc(C(F)(F)F)c1.[Na+] [Compound 149] ?
True
